All values here come from patent US8933129B2.

assay: electron donor activity (XTT reduction); format: physicochemical; details: Michaelis-Menten fit, listed as 4-methoxy-3-methyl phenol, read-out: Kd (concentration at which half maximal electron donor activity is observed)
RESULT_TYPE: Kd

                                   compound  endpoint_value
0  COc1ccc(O)cc1C [4-MmC, 4-methoxy-3-methylphenol]           13 µM

====

biological target: RyR1 (skeletal muscle CRC) (Oryctolagus cuniculus); construct: from tissue; host or cells: fast twitch skeletal muscle of New Zealand White rabbit, heavy sarcoplasmic reticulum fraction; assay: Single Ca2+ channel analysis: open probability of skeletal muscle CRC reconstituted in planar bilayer; assay type: biochemical, rabbit; conditions: IC50 for K201 inhibition of RyR1, FIG. 2, as restated in Example 4; unit inferred
Sequence (P11716 whole entry): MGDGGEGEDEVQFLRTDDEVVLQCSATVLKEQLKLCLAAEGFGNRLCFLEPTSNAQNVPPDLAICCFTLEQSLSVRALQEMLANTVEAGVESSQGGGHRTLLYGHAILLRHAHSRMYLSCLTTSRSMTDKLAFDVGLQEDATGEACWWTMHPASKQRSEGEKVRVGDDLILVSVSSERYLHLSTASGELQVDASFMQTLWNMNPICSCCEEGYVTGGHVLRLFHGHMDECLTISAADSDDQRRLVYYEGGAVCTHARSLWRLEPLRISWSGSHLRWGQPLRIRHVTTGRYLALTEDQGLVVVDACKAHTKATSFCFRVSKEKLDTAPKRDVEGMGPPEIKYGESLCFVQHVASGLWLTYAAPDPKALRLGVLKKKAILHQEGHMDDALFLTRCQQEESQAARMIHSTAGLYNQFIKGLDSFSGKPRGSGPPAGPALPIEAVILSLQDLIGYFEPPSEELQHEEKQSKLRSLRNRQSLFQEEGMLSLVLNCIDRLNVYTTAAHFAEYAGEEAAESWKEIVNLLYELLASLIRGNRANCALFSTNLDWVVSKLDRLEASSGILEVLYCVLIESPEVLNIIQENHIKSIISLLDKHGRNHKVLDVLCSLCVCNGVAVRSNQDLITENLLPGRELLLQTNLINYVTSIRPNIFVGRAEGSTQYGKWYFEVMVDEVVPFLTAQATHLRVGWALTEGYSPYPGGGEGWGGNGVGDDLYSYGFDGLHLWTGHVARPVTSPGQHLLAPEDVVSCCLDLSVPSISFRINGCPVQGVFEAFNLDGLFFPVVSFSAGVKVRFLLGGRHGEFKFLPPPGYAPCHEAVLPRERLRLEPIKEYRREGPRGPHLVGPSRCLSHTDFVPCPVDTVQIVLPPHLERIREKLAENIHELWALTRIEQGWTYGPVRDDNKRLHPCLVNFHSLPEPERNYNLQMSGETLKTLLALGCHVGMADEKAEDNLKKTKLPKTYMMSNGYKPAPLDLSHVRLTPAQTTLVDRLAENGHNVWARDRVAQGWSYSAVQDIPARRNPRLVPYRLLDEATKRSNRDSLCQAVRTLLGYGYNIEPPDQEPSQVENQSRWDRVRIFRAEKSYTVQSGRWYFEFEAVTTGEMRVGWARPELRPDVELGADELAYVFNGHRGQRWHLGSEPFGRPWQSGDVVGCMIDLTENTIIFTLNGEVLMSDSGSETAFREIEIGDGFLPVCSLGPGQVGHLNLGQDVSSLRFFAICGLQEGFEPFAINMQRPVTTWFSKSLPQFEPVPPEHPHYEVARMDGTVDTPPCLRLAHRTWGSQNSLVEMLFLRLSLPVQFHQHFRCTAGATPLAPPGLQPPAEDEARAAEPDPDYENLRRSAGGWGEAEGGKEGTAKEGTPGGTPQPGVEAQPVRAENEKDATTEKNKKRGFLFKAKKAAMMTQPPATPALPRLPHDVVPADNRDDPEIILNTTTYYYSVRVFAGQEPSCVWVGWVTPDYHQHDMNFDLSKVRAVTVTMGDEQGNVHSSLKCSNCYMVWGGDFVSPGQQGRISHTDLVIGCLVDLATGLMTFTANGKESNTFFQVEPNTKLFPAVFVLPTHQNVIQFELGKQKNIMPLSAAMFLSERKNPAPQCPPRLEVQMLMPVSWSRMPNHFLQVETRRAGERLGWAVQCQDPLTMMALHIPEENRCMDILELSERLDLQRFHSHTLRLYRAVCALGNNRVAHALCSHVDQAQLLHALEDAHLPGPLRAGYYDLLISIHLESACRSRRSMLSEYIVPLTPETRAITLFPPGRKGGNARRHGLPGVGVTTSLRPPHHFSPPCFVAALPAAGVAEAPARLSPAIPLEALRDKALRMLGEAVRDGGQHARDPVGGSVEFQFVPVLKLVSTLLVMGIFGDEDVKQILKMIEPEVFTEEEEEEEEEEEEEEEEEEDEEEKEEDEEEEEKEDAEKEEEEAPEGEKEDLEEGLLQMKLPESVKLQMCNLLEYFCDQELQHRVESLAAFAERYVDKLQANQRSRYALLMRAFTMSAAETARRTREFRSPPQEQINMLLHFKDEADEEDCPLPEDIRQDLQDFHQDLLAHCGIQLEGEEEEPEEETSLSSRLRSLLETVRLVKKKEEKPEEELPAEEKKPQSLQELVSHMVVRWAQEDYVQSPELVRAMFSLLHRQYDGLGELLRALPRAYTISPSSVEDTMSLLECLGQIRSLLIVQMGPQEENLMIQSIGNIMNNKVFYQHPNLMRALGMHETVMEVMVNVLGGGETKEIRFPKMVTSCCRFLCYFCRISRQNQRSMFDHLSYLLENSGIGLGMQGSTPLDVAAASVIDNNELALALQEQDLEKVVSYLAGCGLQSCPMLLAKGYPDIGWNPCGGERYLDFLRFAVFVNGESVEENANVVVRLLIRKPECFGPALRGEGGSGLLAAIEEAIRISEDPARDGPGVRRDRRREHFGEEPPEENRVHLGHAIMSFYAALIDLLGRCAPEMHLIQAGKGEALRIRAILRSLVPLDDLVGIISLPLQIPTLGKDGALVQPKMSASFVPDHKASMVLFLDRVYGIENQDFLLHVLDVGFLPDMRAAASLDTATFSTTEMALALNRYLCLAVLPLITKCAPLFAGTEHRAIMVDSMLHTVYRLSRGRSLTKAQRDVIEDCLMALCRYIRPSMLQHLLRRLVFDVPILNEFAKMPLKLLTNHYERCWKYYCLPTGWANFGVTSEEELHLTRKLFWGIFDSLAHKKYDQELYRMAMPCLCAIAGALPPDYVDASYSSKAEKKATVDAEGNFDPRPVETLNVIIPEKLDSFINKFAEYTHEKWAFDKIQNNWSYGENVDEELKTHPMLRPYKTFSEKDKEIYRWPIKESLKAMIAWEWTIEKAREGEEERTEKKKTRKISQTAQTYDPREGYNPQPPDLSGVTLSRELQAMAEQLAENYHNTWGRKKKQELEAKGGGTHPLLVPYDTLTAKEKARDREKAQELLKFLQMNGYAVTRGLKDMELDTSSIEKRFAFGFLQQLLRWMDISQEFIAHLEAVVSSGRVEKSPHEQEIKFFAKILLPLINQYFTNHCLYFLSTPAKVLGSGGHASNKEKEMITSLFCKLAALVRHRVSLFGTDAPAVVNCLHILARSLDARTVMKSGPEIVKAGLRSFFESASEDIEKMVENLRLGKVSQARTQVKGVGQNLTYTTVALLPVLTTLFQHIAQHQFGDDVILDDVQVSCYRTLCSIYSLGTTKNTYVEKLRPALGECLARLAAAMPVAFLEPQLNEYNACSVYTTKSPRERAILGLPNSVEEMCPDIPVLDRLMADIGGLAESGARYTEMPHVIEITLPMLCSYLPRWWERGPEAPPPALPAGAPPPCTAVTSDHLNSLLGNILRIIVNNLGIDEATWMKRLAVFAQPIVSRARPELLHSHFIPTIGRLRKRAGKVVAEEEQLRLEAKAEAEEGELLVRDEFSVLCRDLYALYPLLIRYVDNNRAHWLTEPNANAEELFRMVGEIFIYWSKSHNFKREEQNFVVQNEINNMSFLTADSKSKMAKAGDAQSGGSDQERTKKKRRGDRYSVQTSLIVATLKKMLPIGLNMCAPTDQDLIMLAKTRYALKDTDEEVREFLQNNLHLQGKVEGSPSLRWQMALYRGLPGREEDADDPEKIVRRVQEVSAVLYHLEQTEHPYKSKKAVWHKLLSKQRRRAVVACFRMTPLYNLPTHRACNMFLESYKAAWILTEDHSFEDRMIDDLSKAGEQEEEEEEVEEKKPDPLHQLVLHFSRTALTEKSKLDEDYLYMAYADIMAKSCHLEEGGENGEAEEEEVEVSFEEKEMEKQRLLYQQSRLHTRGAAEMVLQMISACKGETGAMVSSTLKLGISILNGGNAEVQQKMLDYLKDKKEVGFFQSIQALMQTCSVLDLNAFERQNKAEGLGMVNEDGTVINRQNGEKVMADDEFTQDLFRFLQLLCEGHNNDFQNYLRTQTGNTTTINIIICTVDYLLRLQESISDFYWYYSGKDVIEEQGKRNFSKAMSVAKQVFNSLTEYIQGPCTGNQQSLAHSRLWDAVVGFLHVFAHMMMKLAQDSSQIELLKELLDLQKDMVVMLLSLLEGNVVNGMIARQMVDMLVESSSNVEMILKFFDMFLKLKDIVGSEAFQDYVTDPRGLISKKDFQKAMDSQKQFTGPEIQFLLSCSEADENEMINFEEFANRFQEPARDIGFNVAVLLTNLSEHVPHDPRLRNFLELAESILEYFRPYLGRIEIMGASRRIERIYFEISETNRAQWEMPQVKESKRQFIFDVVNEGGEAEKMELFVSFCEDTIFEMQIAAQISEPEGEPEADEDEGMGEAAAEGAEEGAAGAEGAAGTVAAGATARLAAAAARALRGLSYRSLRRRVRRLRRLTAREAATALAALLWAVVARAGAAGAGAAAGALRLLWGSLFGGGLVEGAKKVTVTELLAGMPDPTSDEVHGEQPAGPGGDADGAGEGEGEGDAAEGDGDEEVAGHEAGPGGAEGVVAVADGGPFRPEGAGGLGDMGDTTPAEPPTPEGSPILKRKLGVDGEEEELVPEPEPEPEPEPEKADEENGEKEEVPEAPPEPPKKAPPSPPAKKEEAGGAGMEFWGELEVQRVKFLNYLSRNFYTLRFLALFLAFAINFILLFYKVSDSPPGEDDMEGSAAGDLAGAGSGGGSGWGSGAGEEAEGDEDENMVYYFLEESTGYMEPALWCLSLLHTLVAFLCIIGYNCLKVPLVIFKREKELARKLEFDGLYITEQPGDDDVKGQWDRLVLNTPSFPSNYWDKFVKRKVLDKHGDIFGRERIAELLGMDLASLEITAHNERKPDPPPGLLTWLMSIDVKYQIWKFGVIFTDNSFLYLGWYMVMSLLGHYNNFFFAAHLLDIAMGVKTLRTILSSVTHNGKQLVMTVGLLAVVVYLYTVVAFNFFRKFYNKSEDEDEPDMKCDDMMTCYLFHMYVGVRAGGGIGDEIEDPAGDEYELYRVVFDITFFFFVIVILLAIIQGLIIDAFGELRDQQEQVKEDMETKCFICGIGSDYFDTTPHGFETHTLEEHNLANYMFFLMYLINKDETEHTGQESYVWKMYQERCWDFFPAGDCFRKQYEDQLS
Sequence (P62943 2-108 partner limits assumed): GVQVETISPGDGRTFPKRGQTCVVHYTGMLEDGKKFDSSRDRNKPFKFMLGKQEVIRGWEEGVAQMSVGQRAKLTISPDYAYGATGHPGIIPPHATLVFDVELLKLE
pIC50: −log10 of the molar value.
RESULT_TYPE: pIC50

>>> print(df.to_string())
                                   compound                               test_system  result_type  endpoint_value
0  COc1ccc2c(c1)CN(C(=O)CCN1CCC(Cc3ccccc3)CC1)CCS2 [K201]  RyR1 (skeletal muscle CRC) (Oryctolagus cuniculus)        pIC50           ~5.40

====

assay: electron donor activity (XTT reduction); format: physicochemical; settings: Michaelis-Menten fit, read-out: Kd (concentration at which half maximal electron donor activity is observed)
RESULT_TYPE: Kd (µM)

In [3]: df
Out[3]:
                                   compound  endpoint_value
0  COc1ccc2c(c1)CN(C(=O)CCN1CCC(Cc3ccccc3)CC1)CCS2 [K201, reference compound]              28
